System: HL-60
Assay info: NCI tumour cell line growth inhibition, 48 h
The source made the active and inactive calls. Cut-off read from the data, not from the text of the source: active = GI50 up to about 1.1 µM and inactive = higher.
Outcome codes: 1.0 for active, 0.0 for inactive

{"Compound": "COc1ccc(C(=C2C=CC=C2)c2ccc(OC)cc2)cc1", "Category label": 0.0}
{"Compound": "CC(=N/NC(=S)Nc1c(C)n(C)n(-c2ccccc2)c1=O)/C(C)=N\\NC(=S)Nc1c(C)n(C)n(-c2ccccc2)c1=O", "Category label": 0.0}
{"Compound": "O=C1OS2(OCc3cccc4cccc2c34)c2ccccc21 (stereo not given)", "Category label": 0.0}
{"Compound": "O=C(O)c1ccc(CNCc2ccccc2)cc1", "Category label": 0.0}
{"Compound": "CCOc1ccc(N(CC(=O)N2CC(=O)Nc3cc(C)c(C)cc32)C(C)=O)cc1", "Category label": 0.0}
{"Compound": "Cc1[nH]c(=O)[nH]c(=S)c1C(=O)NC(C)(CO)CO", "Category label": 0.0}
{"Compound": "COc1ccc(/N=N/c2c(N)nn(C)c2N)cc1", "Category label": 0.0}
{"Compound": "N#C[BH2-][n+]1cn(C2CC(OP(=O)(O)OCC3OC(n4cnc5c(N)ncnc54)CC3O)C(CO)O2)c2nc(N)[nH]c(=O)c21 (stereo not given)", "Category label": 0.0}
{"Compound": "CC(=O)NCc1c(C(N)=O)ncn1Cc1ccccc1", "Category label": 0.0}
{"Compound": "C1=N\\CCNCC/N=C/c2ccccc2OCc2cccc(n2)COc2ccccc2/1", "Category label": 0.0}
{"Compound": "CNC(=S)/N=c1/sc(NC)nc2sc3c(c12)CCCC3", "Category label": 0.0}
{"Compound": "CC(C)C1C(=O)NC(CO)Cc2c[nH]c3c(C(c4c[nH]c5ccccc45)C(O)CO)ccc(c23)N1C (stereo not given)", "Category label": 0.0}
{"Compound": "CC(C)CCC[C@@H](C)C1CCC2[C@@H]3CCC4C[C@@H](NS(C)(=O)=O)CC[C@]4(C)C3CC[C@@]21C (stereo not given in full)", "Category label": 0.0}
{"Compound": "C/C=C1\\C(=O)O[C@H]2C/C(C)=C/CC/C(C)=C/CC[C@@]3(C)O[C@@H]3C[C@@H]12", "Category label": 0.0}
{"Compound": "C1CN2CCO[SiH](O1)OCC2", "Category label": 0.0}
{"Compound": "Cc1cc(O)c2c(c1)CC(O)C1=C2C(=O)c2c(O)ccc(OC3CC(O)C(OC4CC(OC5CCC(O)C(C)O5)C(O)C(C)O4)C(C)O3)c2C1=O (stereo not given)", "Category label": 1.0}
{"Compound": "O=C(Nc1c(Cl)cc([N+](=O)[O-])cc1Cl)/C(=N\\Nc1cccc(Cl)c1)c1c(O)c2ccccc2oc1=O", "Category label": 0.0}
{"Compound": "C/C(N)=N/OCc1nc(C)no1", "Category label": 0.0}
{"Compound": "Cc1cc(NCC2CC/C(=C\\C=C\\c3ccccc3)C2=O)no1 (stereo not given)", "Category label": 0.0}
{"Compound": "CCNCC(O)COc1ccc2c(c1)[n+]([O-])nc(N)[n+]2[O-] (stereo not given)", "Category label": 0.0}

----------
Test system: SN12C
Assay info: NCI tumour cell line growth inhibition, 48 h
The source made the active and inactive calls. Rule as the data show it: active = GI50 up to about 1.1 µM and inactive = higher.
Below, each entry is listed with its recorded GI50.
Measure name: GI50

{"Compound": "O=C1C2=C(c3ccccc31)C(c1ccc(Cl)cc1)N1C(=O)CCSC1=N2 (centres undefined)", "Measure name": "GI50", "Val": "44.6 µM (inactive)"}
{"Compound": "O=C(OCCNC(=O)N1CC1)OCCNC(=O)N1CC1", "Measure name": "GI50", "Val": "> 10 µM (inactive)"}
{"Compound": "Cc1ccc(S(=O)(=O)N2CCN(S(=O)(=O)c3ccc(C)cc3)CCN(S(=O)(=O)c3ccc(C)cc3)Cc3cc(Br)c(Br)cc3CN(S(=O)(=O)c3ccc(C)cc3)CC2)cc1", "Measure name": "GI50", "Val": "> 100 µM (inactive)"}
{"Compound": "COc1cc(/C=C(\\NC(=O)c2ccccc2)c2nc3c(O)nc(S)nc3[nH]2)cc(OC)c1OC", "Measure name": "GI50", "Val": "> 100 µM (inactive)"}
{"Compound": "COC(=O)c1c(C#N)c(N)nc2c1CCC2", "Measure name": "GI50", "Val": "> 100 µM (inactive)"}
{"Compound": "COc1ccc2c(c1)CC1COc3cc(OC)ccc3C1O2 (centres undefined)", "Measure name": "GI50", "Val": "> 100 µM (inactive)"}
{"Compound": "O=c1[nH]c(=S)[nH]cc1CN1CCOCC1", "Measure name": "GI50", "Val": "> 100 µM (inactive)"}
{"Compound": "COC(=O)CCCC(=O)NC1=C(Nc2ccccc2)C(=O)c2ccccc2C1=O", "Measure name": "GI50", "Val": "18 µM (inactive)"}
{"Compound": "O=C(O)[C@@H]1NC[C@H]2C(Br)=NO[C@H]21", "Measure name": "GI50", "Val": "> 100 µM (inactive)"}
{"Compound": "COc1cc(NCCC2CCCCN2)c2ncccc2c1 (centres undefined)", "Measure name": "GI50", "Val": "> 49.4 µM (inactive)"}
{"Compound": "Oc1nc(S)nc2nc3c4cccnc4c4ccccc4c3nc12", "Measure name": "GI50", "Val": "> 100 µM (inactive)"}
{"Compound": "O=Nc1ccc(O)c2ncccc12", "Measure name": "GI50", "Val": "8.18 µM (inactive)"}
{"Compound": "O=C(OCc1nc2ccc(Br)cc2c(=O)n1-c1ccccc1)c1ccccc1O", "Measure name": "GI50", "Val": "> 100 µM (inactive)"}
{"Compound": "C1CN2CCO[SiH](O1)OCC2", "Measure name": "GI50", "Val": "> 100 µM (inactive)"}
{"Compound": "CC(=O)Oc1ccc(O)c2c1CCCC2", "Measure name": "GI50", "Val": "> 45.4 µM (inactive)"}
{"Compound": "CCC(N)(C(=O)O)C(C)C (centres undefined)", "Measure name": "GI50", "Val": "> 100 µM (inactive)"}
{"Compound": "CC(C)(C)OC(=O)N1C/C=C\\C(=O)C2(OCCO2)c2ccccc21", "Measure name": "GI50", "Val": "26.5 µM (inactive)"}
{"Compound": "CCOC(=O)/C=C1/Nc2cc(F)c(F)cc2NC1=O", "Measure name": "GI50", "Val": "> 100 µM (inactive)"}
{"Compound": "C=C(C)[C@H]1CC23C(=O)C(C(=O)C(C)C)=C(O)[C@](C)(C[C@H]2C1(C)C)C3=O [LALIBINONE B]", "Measure name": "GI50", "Val": "17 µM (inactive)"}
{"Compound": "CN(C)C(Cc1c[nH]cn1)C(=O)N1CCCC1C(N)=O (centres undefined)", "Measure name": "GI50", "Val": "> 100 µM (inactive)"}
{"Compound": "O=C1NC2(CCCC2)/C(=N\\O)C12CCCC2", "Measure name": "GI50", "Val": "> 100 µM (inactive)"}
{"Compound": "SC1=Nc2ccccc2-c2nc(-c3cccc(Cl)c3)cc(-c3ccccc3)c2C1", "Measure name": "GI50", "Val": "2.08 µM (inactive)"}
{"Compound": "N#Cc1c(N2CCC(O)C2)c2ccccc2n2c1nc1ccccc12 (centres undefined)", "Measure name": "GI50", "Val": "72.4 µM (inactive)"}
{"Compound": "O=C1CC[C@@H](NC(=O)Cc2ccccc2)C(=O)N1", "Measure name": "GI50", "Val": "> 100 µM (inactive)"}
{"Compound": "Cc1cc(NCC2CC/C(=C\\C=C\\c3ccccc3)C2=O)no1 (centres undefined)", "Measure name": "GI50", "Val": "> 100 µM (inactive)"}
{"Compound": "COc1cccc2ccc(C(=O)c3ccccc3)nc12", "Measure name": "GI50", "Val": "> 100 µM (inactive)"}
{"Compound": "NCCCN(CCCCN(CCCN)CCCc1ccccc1)CCCc1ccccc1", "Measure name": "GI50", "Val": "3.9 µM (inactive)"}
{"Compound": "Cc1cc(C)c(C2=NOC(c3ccccc3)(c3cc(=O)n(-c4ccccc4)s3)O2)c(C)c1 (centres undefined)", "Measure name": "GI50", "Val": "33 µM (inactive)"}
{"Compound": "CN(N=O)C(=O)N[C@H]1C(O)O[C@H](CO)[C@@H](O)[C@@H]1O (some centres undefined)", "Measure name": "GI50", "Val": "581 µM (inactive)"}
{"Compound": "O=C(/C=C/c1ccccc1)c1ccc(NCc2nc3ccccc3[nH]2)cc1", "Measure name": "GI50", "Val": "5.33 µM (inactive)"}
{"Compound": "CCCNC(=O)CCC(C)[C@H]1CCC2C3C(C[C@H](OC(C)=O)[C@@]21C)[C@@]1(C)CCC2(C[C@H]1C[C@H]3OC(C)=O)OOC1(CCCCC1)OO2 (some centres undefined)", "Measure name": "GI50", "Val": "3.01 µM (inactive)"}
{"Compound": "Oc1cc(-c2ccccc2)nc2cc(Cl)ccc12", "Measure name": "GI50", "Val": "3.3 µM (inactive)"}
{"Compound": "COc1ccc2[nH]c3c(c2c1)[C@H](C)C[C@@H]1C(=O)N(c2ccccc2)C(=O)[C@H]31", "Measure name": "GI50", "Val": "27.1 µM (inactive)"}
{"Compound": "O=C1C(=Cc2ccc(O)cc2)N=C(c2ccccc2)N1n1c(-c2ccccc2)nc2ccccc2c1=O", "Measure name": "GI50", "Val": "> 10 µM (inactive)"}
{"Compound": "CC(=O)C1=CN=C2C(=O)N(c3ccccc3)N(C)C12C (centres undefined)", "Measure name": "GI50", "Val": "> 100 µM (inactive)"}
{"Compound": "CCOC(=O)C1CCCCN1C(=O)Cc1c[nH]c2ccccc12 (centres undefined)", "Measure name": "GI50", "Val": "> 100 µM (inactive)"}
{"Compound": "Nc1nc(Cl)cc(OCC2(CO)CCCC2)n1", "Measure name": "GI50", "Val": "> 100 µM (inactive)"}
{"Compound": "O=c1c2nc(-c3ccccc3)oc2n(-c2ccccc2)c(=O)n1-c1ccccc1", "Measure name": "GI50", "Val": "36.2 µM (inactive)"}
{"Compound": "C[N+](C)(C)CC1CCCCC1O (centres undefined)", "Measure name": "GI50", "Val": "> 100 µM (inactive)"}
{"Compound": "O=C(/C=C/c1ccsc1)c1ccc(Cl)cc1", "Measure name": "GI50", "Val": "43.4 µM (inactive)"}
{"Compound": "CCCC(C)NC1=C(NC(C)=O)C(=O)c2ccccc2C1=O (centres undefined)", "Measure name": "GI50", "Val": "> 100 µM (inactive)"}
{"Compound": "O=C(C#Cc1cnc(O)nc1O)c1ccccc1", "Measure name": "GI50", "Val": "4.37 µM (inactive)"}
{"Compound": "CC1OC(c2ccc3c(c2O)C(=O)C2=C(C3=O)C3(O)C(=O)CC(C)(O)CC3(O)C=C2)CC(O)C1O (centres undefined)", "Measure name": "GI50", "Val": "15 µM (inactive)"}
{"Compound": "CC(=O)OC[C@@]1(C)[C@@H]2[C@@H]3[C@@]4(CO[C@]3(C)C(=O)[C@@]3(OC(C)=O)C[C@H](C)[C@H](OC(C)=O)[C@@H]3[C@H]4OC(C)=O)[C@H](OC(=O)c3ccccc3)C[C@@H]21", "Measure name": "GI50", "Val": "> 100 µM (inactive)"}

This collection of values is drawn from ChEMBL document CHEMBL1201862.
